Test system: Ba/F3-EGFR-L718Q
TEST NAME: Ba/F3-EGFR-L718Q proliferation assay (CTG)
Assay type: cell-based
MEASUREMENT CONDITIONS: Mus musculus
ASSAY ENDPOINT: IC50 (nM)
Just the number in nM, nothing appended.

[ask] Entry CN1CCN(c2ccc(Nc3ncc4cc(C#N)c(=O)n(C5CCCC5)c4n3)cc2)CC1 [Narazaciclib, narazaciclib] needs its IC50 filled in; supply it.
[reply] 633

====

TEST NAME: Single-dose oral pharmacokinetics in non-tumor bearing mice
Format: in vivo
MEASUREMENT CONDITIONS: female, NOD/scid; 100 mg/kg single oral, mouse plasma; read-out: CL_F (converted)
ASSAY ENDPOINT: CL/F
Provide the measurement as a number trailed by its unit.

[ask] Entry CN1CCN(c2ccc(Nc3ncc4cc(C#N)c(=O)n(C5CCCC5)c4n3)cc2)CC1 needs its CL/F filled in; supply it.
[reply] 203 mL/min/kg

====

TEST NAME: Single-dose oral pharmacokinetics in non-tumor bearing mice
Format: in vivo
MEASUREMENT CONDITIONS: female, NOD/scid, mouse, plasma, oral; corresponding to 100 mg/kg dose level; read-out: efficacious exposure for anti-AML in mice in terms of AUC0~∞
ASSAY ENDPOINT: AUC(0-inf)

[ask] Entry CN1CCN(c2ccc(Nc3ncc4cc(C#N)c(=O)n(C5CCCC5)c4n3)cc2)CC1 [Narazaciclib, narazaciclib] needs its AUC(0-inf) filled in; supply it.
[reply] < 8190 ng·h/mL

====

TEST NAME: Single-dose oral pharmacokinetics in non-tumor bearing mice
Type: in vivo
MEASUREMENT CONDITIONS: female, NOD/scid; 100 mg/kg single oral, mouse plasma; read-out: AUC0-∞
ASSAY ENDPOINT: AUC(0-inf) (ng·h/mL)
Just the number in ng·h/mL, nothing appended.

[ask] Entry CN1CCN(c2ccc(Nc3ncc4cc(C#N)c(=O)n(C5CCCC5)c4n3)cc2)CC1 [Narazaciclib, narazaciclib] needs its AUC(0-inf) filled in; supply it.
[reply] 8210

====

System: AML-193
TEST NAME: AML cell line in vitro proliferation assay
Format: cell-based
MEASUREMENT CONDITIONS: AML-193, 120 h, CTG
ASSAY ENDPOINT: IC50 (µM)
Just the number in µM, nothing appended.

[ask] Entry CN1CCN(c2ccc(Nc3ncc4cc(C#N)c(=O)n(C5CCCC5)c4n3)cc2)CC1 needs its IC50 filled in; supply it.
[reply] 6.29

====

ASSAY ENDPOINT: IC50 (nM)
Just the number in nM, nothing appended.

[ask] Please report the measured IC50 for CN1CCN(c2ccc(Nc3ncc4cc(C#N)c(=O)n(C5CCCC5)c4n3)cc2)CC1 tested on FGFR4 (Homo sapiens, UniProt P22455).
Sequence (P22455 22-802): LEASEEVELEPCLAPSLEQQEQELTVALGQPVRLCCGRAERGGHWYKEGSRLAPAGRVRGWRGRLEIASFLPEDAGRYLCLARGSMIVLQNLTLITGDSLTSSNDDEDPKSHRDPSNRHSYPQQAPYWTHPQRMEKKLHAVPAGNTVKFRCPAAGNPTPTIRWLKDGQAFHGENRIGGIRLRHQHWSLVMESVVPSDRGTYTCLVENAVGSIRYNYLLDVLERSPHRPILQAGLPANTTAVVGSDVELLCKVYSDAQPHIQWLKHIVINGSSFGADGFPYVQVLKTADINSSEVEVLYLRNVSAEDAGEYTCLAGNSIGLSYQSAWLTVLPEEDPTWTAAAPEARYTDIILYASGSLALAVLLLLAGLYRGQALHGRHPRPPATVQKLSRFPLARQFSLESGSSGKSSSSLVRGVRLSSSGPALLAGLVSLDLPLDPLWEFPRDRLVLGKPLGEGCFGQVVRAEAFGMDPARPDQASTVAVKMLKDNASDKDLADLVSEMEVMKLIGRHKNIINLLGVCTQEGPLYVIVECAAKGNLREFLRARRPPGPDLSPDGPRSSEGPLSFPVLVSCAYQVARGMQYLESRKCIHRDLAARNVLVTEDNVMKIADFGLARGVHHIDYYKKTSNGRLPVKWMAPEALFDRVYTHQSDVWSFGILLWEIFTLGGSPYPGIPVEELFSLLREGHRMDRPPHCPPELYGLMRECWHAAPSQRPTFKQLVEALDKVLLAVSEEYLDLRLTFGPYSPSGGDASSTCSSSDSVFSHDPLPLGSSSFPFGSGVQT
[reply] 2740

====

TEST NAME: Single-dose oral pharmacokinetics in non-tumor bearing mice
Format: in vivo
MEASUREMENT CONDITIONS: female, NOD/scid; 30 mg/kg single oral, mouse plasma
ASSAY ENDPOINT: half-life (h)
Just the number in h, nothing appended.

[ask] Entry CN1CCN(c2ccc(Nc3ncc4cc(C#N)c(=O)n(C5CCCC5)c4n3)cc2)CC1 needs its half-life filled in; supply it.
[reply] 1.92

====

TEST NAME: Single-dose oral pharmacokinetics in non-tumor bearing mice
Type: in vivo
MEASUREMENT CONDITIONS: female, NOD/scid, mouse, plasma, oral; corresponding to 100 mg/kg dose level; read-out: efficacious exposure for anti-AML in mice in terms of Cmax
ASSAY ENDPOINT: Cmax

[ask] Entry CN1CCN(c2ccc(Nc3ncc4cc(C#N)c(=O)n(C5CCCC5)c4n3)cc2)CC1 needs its Cmax filled in; supply it.
[reply] < 1.46 µg/mL

====

EXPERIMENTAL SYSTEM: UniProtKB P57059
Sequence (P57059 whole entry): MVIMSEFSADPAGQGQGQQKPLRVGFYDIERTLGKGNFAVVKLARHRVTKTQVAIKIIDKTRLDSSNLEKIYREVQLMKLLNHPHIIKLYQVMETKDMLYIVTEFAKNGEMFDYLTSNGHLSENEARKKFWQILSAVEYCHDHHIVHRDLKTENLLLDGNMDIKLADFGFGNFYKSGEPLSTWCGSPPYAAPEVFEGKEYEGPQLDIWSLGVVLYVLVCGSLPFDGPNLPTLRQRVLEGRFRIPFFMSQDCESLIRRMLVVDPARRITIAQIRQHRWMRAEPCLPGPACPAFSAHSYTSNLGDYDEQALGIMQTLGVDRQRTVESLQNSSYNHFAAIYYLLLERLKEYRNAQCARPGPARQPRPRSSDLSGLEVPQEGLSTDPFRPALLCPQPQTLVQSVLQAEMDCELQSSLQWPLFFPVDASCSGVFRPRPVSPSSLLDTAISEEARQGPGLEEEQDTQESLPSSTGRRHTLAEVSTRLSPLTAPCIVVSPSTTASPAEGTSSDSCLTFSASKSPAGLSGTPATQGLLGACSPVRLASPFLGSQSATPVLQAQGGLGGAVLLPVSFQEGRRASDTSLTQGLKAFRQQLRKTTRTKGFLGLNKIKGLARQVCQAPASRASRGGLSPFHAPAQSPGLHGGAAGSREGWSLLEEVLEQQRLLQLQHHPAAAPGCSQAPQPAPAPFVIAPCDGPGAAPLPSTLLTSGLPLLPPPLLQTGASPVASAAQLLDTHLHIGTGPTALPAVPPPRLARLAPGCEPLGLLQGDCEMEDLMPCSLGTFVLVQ
ASSAY ENDPOINT: pIC50
Please express pIC50 as -log10 of the molar concentration.

[ask] Entry CN1CCN(c2ccc(Nc3ncc4cc(C#N)c(=O)n(C5CCCC5)c4n3)cc2)CC1 needs its pIC50 filled in; supply it.
[reply] 7.47

====

Tested on: ML2
TEST NAME: AML cell line in vitro proliferation assay
Type: cell-based
MEASUREMENT CONDITIONS: Homo sapiens, ML-2; ML2, 72 h, CTG
ASSAY ENDPOINT: pIC50
Please express pIC50 as -log10 of the molar concentration.

[ask] Entry CN1CCN(c2ccc(Nc3ncc4cc(C#N)c(=O)n(C5CCCC5)c4n3)cc2)CC1 needs its pIC50 filled in; supply it.
[reply] 5.44

====

System: MOLM-13
TEST NAME: AML cell line in vitro proliferation assay
Assay type: cell-based
MEASUREMENT CONDITIONS: Homo sapiens; MOLM-13, 72 h, CTG
ASSAY ENDPOINT: pIC50
Please express pIC50 as -log10 of the molar concentration.

[ask] Entry CN1CCN(c2ccc(Nc3ncc4cc(C#N)c(=O)n(C5CCCC5)c4n3)cc2)CC1 [Narazaciclib, narazaciclib] needs its pIC50 filled in; supply it.
[reply] 6.99

====

Tested on: Ba/F3-FLT3-N701K
TEST NAME: Ba/F3-FLT3-N701K proliferation assay
Type: cell-based, mouse
MEASUREMENT CONDITIONS: Mus musculus
ASSAY ENDPOINT: IC50 (nM)
Just the number in nM, nothing appended.

[ask] Entry CN1CCN(c2ccc(Nc3ncc4cc(C#N)c(=O)n(C5CCCC5)c4n3)cc2)CC1 [Narazaciclib, narazaciclib] needs its IC50 filled in; supply it.
[reply] 396

====

System: Ba/F3-CSF1R cell line
TEST NAME: Ba/F3-CSF1R proliferation assay (CTG)
Format: cell-based, mouse
MEASUREMENT CONDITIONS: Mus musculus, + 100 ng/ml CSF-1
Please provide measured IC50 for the entries that follow.

[ask] Entry FC(F)(F)c1ccc(CNc2ccc(Cc3c[nH]c4ncc(Cl)cc34)cn2)cn1 [Pexidartinib, pexidartinib, reference compound] needs its IC50 filled in; supply it.
[reply] ~3.88 nM

[ask] Entry CN1CCN(c2ccc(Nc3ncc4cc(C#N)c(=O)n(C5CCCC5)c4n3)cc2)CC1 needs its IC50 filled in; supply it.
[reply] ~3.54 nM

====

TEST NAME: Single-dose oral pharmacokinetics in non-tumor bearing mice
Type: in vivo
MEASUREMENT CONDITIONS: female, NOD/scid; 30 mg/kg single oral, mouse plasma; read-out: AUC0-∞
ASSAY ENDPOINT: AUC(0-inf)

[ask] Entry CN1CCN(c2ccc(Nc3ncc4cc(C#N)c(=O)n(C5CCCC5)c4n3)cc2)CC1 [Narazaciclib, narazaciclib] needs its AUC(0-inf) filled in; supply it.
[reply] 1200 ng·h/mL

====

Tested on: OCI-M1
TEST NAME: AML cell line in vitro proliferation assay
Type: cell-based
MEASUREMENT CONDITIONS: OCI-M1, 72 h, CTG
ASSAY ENDPOINT: IC50
Provide the measurement as a number trailed by its unit.

[ask] Entry CN1CCN(c2ccc(Nc3ncc4cc(C#N)c(=O)n(C5CCCC5)c4n3)cc2)CC1 [Narazaciclib, narazaciclib] needs its IC50 filled in; supply it.
[reply] 19.5 µM

====

Test system: OCI-AML-5
TEST NAME: AML cell line in vitro proliferation assay
Assay type: cell-based
MEASUREMENT CONDITIONS: Homo sapiens; OCI-AML-5, 72 h, CTG
ASSAY ENDPOINT: pIC50
Please express pIC50 as -log10 of the molar concentration.

[ask] Entry CN1CCN(c2ccc(Nc3ncc4cc(C#N)c(=O)n(C5CCCC5)c4n3)cc2)CC1 needs its pIC50 filled in; supply it.
[reply] 6.43

====

TEST NAME: Single-dose oral pharmacokinetics in non-tumor bearing mice
Format: in vivo
MEASUREMENT CONDITIONS: female, NOD/scid; 30 mg/kg single oral, mouse plasma
ASSAY ENDPOINT: Tmax
Provide the measurement as a number trailed by its unit.

[ask] Entry CN1CCN(c2ccc(Nc3ncc4cc(C#N)c(=O)n(C5CCCC5)c4n3)cc2)CC1 needs its Tmax filled in; supply it.
[reply] 1 h

====

EXPERIMENTAL SYSTEM: FGFR3 (Homo sapiens, UniProt P22607)
Sequence (P22607 23-806): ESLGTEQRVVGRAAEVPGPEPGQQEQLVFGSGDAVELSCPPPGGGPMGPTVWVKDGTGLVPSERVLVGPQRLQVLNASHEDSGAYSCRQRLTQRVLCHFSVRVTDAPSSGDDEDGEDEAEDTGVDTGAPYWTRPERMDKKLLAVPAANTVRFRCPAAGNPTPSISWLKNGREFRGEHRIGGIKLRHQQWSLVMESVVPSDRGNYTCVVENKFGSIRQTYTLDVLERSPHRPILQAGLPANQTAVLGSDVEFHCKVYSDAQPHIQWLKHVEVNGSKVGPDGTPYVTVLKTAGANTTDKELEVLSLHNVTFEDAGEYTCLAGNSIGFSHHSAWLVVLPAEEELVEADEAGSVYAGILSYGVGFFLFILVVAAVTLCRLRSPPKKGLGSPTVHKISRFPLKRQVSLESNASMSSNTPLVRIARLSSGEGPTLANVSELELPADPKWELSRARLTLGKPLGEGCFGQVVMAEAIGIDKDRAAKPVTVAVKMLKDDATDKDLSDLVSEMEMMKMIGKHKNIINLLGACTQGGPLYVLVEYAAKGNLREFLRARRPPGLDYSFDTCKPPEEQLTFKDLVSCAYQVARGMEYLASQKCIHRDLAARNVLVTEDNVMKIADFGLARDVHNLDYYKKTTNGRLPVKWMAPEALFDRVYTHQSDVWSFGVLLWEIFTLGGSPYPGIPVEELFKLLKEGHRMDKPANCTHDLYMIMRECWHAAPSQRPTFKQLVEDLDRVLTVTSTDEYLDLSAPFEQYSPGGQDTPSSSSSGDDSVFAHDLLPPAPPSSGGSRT
ASSAY ENDPOINT: pIC50
Please express pIC50 as -log10 of the molar concentration.

[ask] Entry CN1CCN(c2ccc(Nc3ncc4cc(C#N)c(=O)n(C5CCCC5)c4n3)cc2)CC1 needs its pIC50 filled in; supply it.
[reply] 6.73

====

Test system: MONOMAC-1
TEST NAME: AML cell line in vitro proliferation assay
Assay type: cell-based
MEASUREMENT CONDITIONS: Mono-Mac-1; MONOMAC-1, 72 h, CTG
Protocol: Narazaciclib was serially diluted with culture medium to 9 final assay concentrations from 0.01 to 100 μM. The assay was performed with both a negative control (vehicle) and a positive control (Cisplatin) in triplicate. […]
ASSAY ENDPOINT: pIC50
Please express pIC50 as -log10 of the molar concentration.

[ask] Entry CN1CCN(c2ccc(Nc3ncc4cc(C#N)c(=O)n(C5CCCC5)c4n3)cc2)CC1 [Narazaciclib, narazaciclib] needs its pIC50 filled in; supply it.
[reply] 6.53
